Entry source: paper PMC8389922

Test: in vitro
Conditions: male, human, 90% fresh human serum
Bridge positions count the residues as written; N and C are the ends. Square brackets hold non-standard residues; d marks the D form. Peptide text beside a SMILES is read from it.
assayEndpoint: half-life at 0.2 mM

Consider the compound CC[C@H](C)[C@H](NC(=O)[C@H](CCCNC(=N)N)NC(=O)[C@@H]1CCC(=O)NCCCC[C@H](NC(=O)[C@H](Cc2ccccc2)NC(=O)[C@H](Cc2c[nH]c3ccccc23)NC(=O)[C@@H]2CCCN2C(=O)[C@@H](NC(=O)[C@@H](N)Cc2ccccc2)C(C)C)C(=O)N[C@@H](CCCCN)C(=O)N[C@@H](Cc2ccccc2)C(=O)N[C@H](CC(C)C)C(=O)N1)C(=O)N[C@@H](CC(C)C)C(N)=O [compound 12] (H-FVPWFKKF[dL]ERIL-NH2; lactam 6-10) and give its measured half-life at 0.2 mM. ~6 h
